System: HaCaT cells
Experiment: cells
Settings: PIF = IC50 Dark / IC50 UVA Light; HaCaT, UVA 5 J/cm^2
Structures can show the parent of a compound that is named as a salt.
Please provide measured Photoirritant factor (PIF) for the entries that follow.
Reply: number alone, nothing else.

The measured Photoirritant factor (PIF) associated with COc1cc2ncnc(Nc3ccc(F)c(Cl)c3)c2cc1O reads 48

Form: molecule = CN(C)CCCN1c2ccccc2Sc2ccc(Cl)cc21 [CPZ, Chlorpromazine hydrochloride, reference compound] ; Photoirritant factor (PIF) = 20

molecule Oc1cc2ncnc(Nc3ccc(F)c(Cl)c3)c2cc1OCCCN1CCOCC1 , Photoirritant factor (PIF) observed: 7

----------
Hi there, I'd appreciate the recorded IC50 for every entry that follows.
Test system: HaCaT cells
Assay: cells
Conditions: Homo sapiens, HaCaT, light or radiation study, 1 h, read-out: IC50 UVA light
Where a name gives a salt, the structure may show the parent alone.
Quick note: give the figure in µM, leave out the unit.

Note to self: IC50 recorded for COc1cc2ncnc(Nc3ccc(F)c(Cl)c3)c2cc1O [DMOR-GFT, O-Demorpholinopropyl gefitinib] was 3

For record Oc1cc2ncnc(Nc3ccc(F)c(Cl)c3)c2cc1OCCCN1CCOCC1 [DMT-GFT, O-Demethyl gefitinib] the listed IC50 is 5

The reported value for COc1cc2ncnc(Nc3ccc(O)c(Cl)c3)c2cc1OCCCN1CCOCC1 [DF-GFT, 4-Defluoro-4-hydroxy gefitinib] in terms of IC50 is 1100

Lab note: CN(C)CCCN1c2ccccc2Sc2ccc(Cl)cc21 [CPZ, Chlorpromazine hydrochloride, reference compound] gave IC50 of 4
